# Test system: MCF7
# Test name: NCI tumour cell line growth inhibition, 48 h
Active and inactive are the calls of the source. Cut-off read from the data, not from the text of the source: active = GI50 up to about 1.1 µM and inactive = higher. Where a SMILES comes first, the peptide text is derived from it. The star is where a group is joined. Boc = CC(C)(C)OC(=O)*; OBn = c1ccc(CO*)cc1
Possible outcomes: active, inactive

{"Compound": "CC1(C)C2CCC(N)(C2)C1O (stereo not drawn)", "Class": "inactive"}
{"Compound": "CC(C)CC(=O)NC(C(=O)NC(C(=O)NC(CC(C)C)C(O)CC(=O)NC(C)C(=O)NC(CC(C)C)C(O)CC(=O)O)C(C)C)C(C)C (stereo not drawn)", "Class": "inactive"}
{"Compound": "c1ccc([P+](Cc2ccccc2C[P+](c2ccccc2)(c2ccccc2)c2ccccc2)(c2ccccc2)c2ccccc2)cc1", "Class": "inactive"}
{"Compound": "CC(O)CCCOC(c1ccccc1)(c1ccccc1)c1ccccc1 (stereo not drawn)", "Class": "inactive"}
{"Compound": "O=S(=O)(c1ccccc1)n1c(C(O)c2ccncc2)cc2ccccc21 (stereo not drawn)", "Class": "inactive"}
{"Compound": "CC(C)CC(NC(=O)C(C)(CI)Cc1ccccc1)C(=O)Nc1ccccc1 (stereo not drawn)", "Class": "inactive"}
{"Compound": "CCC(C)N1CN(c2ccccc2)C2(CCN(CCCC(=O)c3ccc(F)cc3)CC2)C1=O (stereo not drawn)", "Class": "active"}
{"Compound": "Cn1c(=O)c2c(nc(NCCCCl)n2CC(=O)O)n(C)c1=O", "Class": "inactive"}
{"Compound": "O=c1c2cc([N+](=O)[O-])ccc2n2n1Cc1ccccc1CC2", "Class": "inactive"}
{"Compound": "O=C(O)c1ccccc1CC1Cc2cc3c(cc2C1)CCC3", "Class": "inactive"}
{"Compound": "O=C(O)/C=C/C=C/c1ccc2c(c1)OCO2 [PIPERIC ACID]", "Class": "inactive"}
{"Compound": "CC1=NNC(=O)[C@H]2[C@H]1CCC1[C@@H]2CC[C@]2(C)[C@@H](O)CC[C@@H]12 (stereo partly drawn)", "Class": "inactive"}
{"Compound": "N=C(N)N/N=C/c1c(-c2ccc([N+](=O)[O-])cc2)nc2n1CCS2", "Class": "inactive"}
{"Compound": "CC(C)(C)C1CCC2c3c([nH]c4ccccc34)C3C(=O)N(c4ccc5c(c4)C(=O)c4ccccc4C5=O)C(=O)C3C2C1 (stereo not drawn)", "Class": "inactive"}
{"Compound": "Nc1ncnc2c1cnn2Cc1ccc(Cl)cc1", "Class": "inactive"}
{"Compound": "Cc1nc2c(-c3ccccc3)[nH]c(C)c2c(=O)o1", "Class": "inactive"}
{"Compound": "CC(=O)/C(=C\\Nc1c(C)n(C)n(C)c1=O)C(=O)c1ccccc1", "Class": "inactive"}
{"Compound": "O=C1CCSc2nc(-c3ccc4c(c3)OCO4)nn21", "Class": "inactive"}
{"Compound": "CC1=NN(c2nc(N)nc(/C(C#N)=C\\c3csc([N+](=O)[O-])c3)n2)C(C)(C)C1", "Class": "inactive"}
{"Compound": "CCOC(=O)N1c2ccccc2C(C)=CC(C)C1C (stereo not drawn)", "Class": "inactive"}
{"Compound": "CN1C(=O)N/C(=C\\c2ccc(S(=O)(=O)N/N=C\\C(O)C(O)C(O)CO)cc2)C1=O (stereo not drawn)", "Class": "inactive"}
{"Compound": "CC(=O)C1=C(N=[N+]=[N-])c2cccc3cccc(c23)C1=O", "Class": "inactive"}
{"Compound": "O=C(O)C1(Cc2ccccc2)Cc2cc3c(cc2C1)CCC3", "Class": "inactive"}
{"Compound": "CN(CCN1CCCC1)C1CCc2cc(Cl)c(Cl)cc2C1 (stereo not drawn)", "Class": "inactive"}
{"Compound": "COc1cccc(Cc2cc(=O)c3ccc(C)nc3[nH]2)c1", "Class": "inactive"}
{"Compound": "NC(=O)SCC(=O)Nc1ccc2ncccc2c1", "Class": "inactive"}
{"Compound": "CC1CC(C)C(C#N)N(C)c2ccccc21 (stereo not drawn)", "Class": "inactive"}
{"Compound": "COc1ccccc1C(=O)NO", "Class": "inactive"}
{"Compound": "CC(=O)O[C@H]1C(=O)[C@@]2(C)[C@H]([C@H](OC(=O)c3ccoc3)[C@]3(O)C[C@H](OC(=O)[C@H](O)[C@@H](NC(=O)c4ccccc4)c4ccccc4)C(C)=C1C3(C)C)[C@]1(OC(C)=O)CO[C@@H]1C[C@@H]2O", "Class": "active"}
{"Compound": "CC[C@@]1(O)C(=O)OCc2c1cc1n(c2=O)Cc2c-1nc1ccccc1c2/C=N\\NC(=O)C1CCCN1 (stereo partly drawn)", "Class": "active"}
{"Compound": "Cc1ccc2c(=O)c(-c3n[nH]c(=S)s3)c[nH]c2n1", "Class": "inactive"}
{"Compound": "CN(/N=C/C=N/N(C)C1=NCCN1)C1=NCCN1", "Class": "inactive"}
{"Compound": "CNC(=O)OCc1c(COC(=O)NC)c(C)n(-c2ccc(Br)cc2)c1C", "Class": "inactive"}
{"Compound": "CSc1cnn(CCC#N)c(=O)n1", "Class": "inactive"}
{"Compound": "COC(=O)NC1(NC(=O)OC)NC(=O)c2cc(OC)c(OC)cc2N1", "Class": "inactive"}
{"Compound": "O=C1Nc2ccccc2/C1=N\\c1cccc2ncccc12", "Class": "inactive"}
{"Compound": "CC(C)CC(NC(=O)OC(C)(C)C)C(=O)N1CCCC1C(=O)OCc1ccccc1 (stereo not drawn) (Boc-Leu-Pro-OBn; configuration not given here)", "Class": "inactive"}
{"Compound": "O=C1CCC2=C(CCC2)N1CCc1ccc2c(c1)OCO2", "Class": "inactive"}
{"Compound": "C=CCCCCCCCCCOC1C=CC(OC(C)=O)C(COC(C)=O)O1 (stereo not drawn)", "Class": "inactive"}
{"Compound": "C=CC1ON(C)CCc2cc(OC)c(OC)cc21 (stereo not drawn)", "Class": "inactive"}
{"Compound": "c1c[nH]c(-c2cccc3nsnc23)c1", "Class": "inactive"}
{"Compound": "Cc1cc(OC(=O)Nc2cccc3ccccc23)c(C(C)C)cc1C(=S)Nc1ccccc1", "Class": "inactive"}
{"Compound": "OC1c2[nH]c3ccccc3c2CCN2CCCCC12 (stereo not drawn)", "Class": "inactive"}

* * *

Observed GI50, system HCT-15.

{"Compound": "CN1C(=O)N/C(=C\\c2ccc(S(=O)(=O)N/N=C\\C(O)C(O)C(O)CO)cc2)C1=O (stereo not given)", "Relation symbol": ">", "GI50, µM": 100}
{"Compound": "N=C(N)N/N=C/c1c(-c2ccc([N+](=O)[O-])cc2)nc2n1CCS2", "Relation symbol": "=", "GI50, µM": 18.5}
{"Compound": "Cc1cc(OC(=O)Nc2cccc3ccccc23)c(C(C)C)cc1C(=S)Nc1ccccc1", "Relation symbol": "=", "GI50, µM": 10.9}
{"Compound": "O=C1C=C(N2CCN(CCOCCO)CC2)C(=O)c2c(O)ccc(O)c21", "Relation symbol": "=", "GI50, µM": 1.64}
{"Compound": "COC(=O)c1ccc(/N=N/N(C)COc2ccc(C#N)cc2)cc1", "Relation symbol": "=", "GI50, µM": 22.4}
{"Compound": "COC1[C@H](NC(=O)OC(C)(C)C)C(=O)N1Cc1ccccc1 (stereo not given in full)", "Relation symbol": ">", "GI50, µM": 100}
{"Compound": "O=C1C[C@@H]2[C@@H](C=CC23CCCC3)N1O", "Relation symbol": ">", "GI50, µM": 100}
{"Compound": "COC(=O)c1c(O)ccc2c1c1c(n2Cc2ccc(OC)cc2)C(=O)c2ccccc2C1=O", "Relation symbol": "=", "GI50, µM": 3.74}
{"Compound": "Cc1cc(C)c2c(=N)c3ccccc3n(CCCCCCCCn3c4ccccc4c(=N)c4c(C)cc(C)nc43)c2n1", "Relation symbol": "=", "GI50, µM": 0.2}
{"Compound": "CN1CCN(c2nc(N)c(Br)c(Cl)n2)CC1", "Relation symbol": ">", "GI50, µM": 100}

* * *

# reported GI50; entries follow
# System: NCI/ADR-RES
# Test name: NCI tumour cell line growth inhibition, 48 h
Active and inactive are the calls of the source. Rule as the data show it: active = GI50 up to about 1.1 µM and inactive = higher.
Assay endpoint: GI50

{"Test smiles": "Cc1ccn2c(=O)cc(-c3ccccc3)nc2c1", "Study system": "NCI/ADR-RES", "Val": "72.3 µM (inactive)"}
{"Test smiles": "O=C1C(N2CCN(CCOCCO)CC2)=C(Cl)C(=O)c2ncccc21", "Study system": "NCI/ADR-RES", "Val": "37.4 µM (inactive)"}
{"Test smiles": "N#C/C(=C/NC(N)=S)C(N)=O", "Study system": "NCI/ADR-RES", "Val": "> 100 µM (inactive)"}
{"Test smiles": "O=c1nc(N2CCCCC2)sc2[nH]c3ccccc3c12", "Study system": "NCI/ADR-RES", "Val": "12.6 µM (inactive)"}
{"Test smiles": "CCOC(=O)N(c1ccccc1)c1cc(=O)n2ccccc2n1", "Study system": "NCI/ADR-RES", "Val": "> 100 µM (inactive)"}

// data source = ChEMBL document CHEMBL1201862
